- targetDesc: SOS1-KRAS (Homo sapiens, UniProt P01116+Q07889, G12C)
- Sequence (P01116 whole entry G12C, stated change not applied): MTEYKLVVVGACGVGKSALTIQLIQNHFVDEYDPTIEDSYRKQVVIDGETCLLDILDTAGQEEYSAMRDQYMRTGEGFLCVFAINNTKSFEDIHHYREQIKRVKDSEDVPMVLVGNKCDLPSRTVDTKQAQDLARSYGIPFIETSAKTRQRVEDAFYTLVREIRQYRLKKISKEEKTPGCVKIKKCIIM
- Sequence (Q07889 whole entry, stated change not applied): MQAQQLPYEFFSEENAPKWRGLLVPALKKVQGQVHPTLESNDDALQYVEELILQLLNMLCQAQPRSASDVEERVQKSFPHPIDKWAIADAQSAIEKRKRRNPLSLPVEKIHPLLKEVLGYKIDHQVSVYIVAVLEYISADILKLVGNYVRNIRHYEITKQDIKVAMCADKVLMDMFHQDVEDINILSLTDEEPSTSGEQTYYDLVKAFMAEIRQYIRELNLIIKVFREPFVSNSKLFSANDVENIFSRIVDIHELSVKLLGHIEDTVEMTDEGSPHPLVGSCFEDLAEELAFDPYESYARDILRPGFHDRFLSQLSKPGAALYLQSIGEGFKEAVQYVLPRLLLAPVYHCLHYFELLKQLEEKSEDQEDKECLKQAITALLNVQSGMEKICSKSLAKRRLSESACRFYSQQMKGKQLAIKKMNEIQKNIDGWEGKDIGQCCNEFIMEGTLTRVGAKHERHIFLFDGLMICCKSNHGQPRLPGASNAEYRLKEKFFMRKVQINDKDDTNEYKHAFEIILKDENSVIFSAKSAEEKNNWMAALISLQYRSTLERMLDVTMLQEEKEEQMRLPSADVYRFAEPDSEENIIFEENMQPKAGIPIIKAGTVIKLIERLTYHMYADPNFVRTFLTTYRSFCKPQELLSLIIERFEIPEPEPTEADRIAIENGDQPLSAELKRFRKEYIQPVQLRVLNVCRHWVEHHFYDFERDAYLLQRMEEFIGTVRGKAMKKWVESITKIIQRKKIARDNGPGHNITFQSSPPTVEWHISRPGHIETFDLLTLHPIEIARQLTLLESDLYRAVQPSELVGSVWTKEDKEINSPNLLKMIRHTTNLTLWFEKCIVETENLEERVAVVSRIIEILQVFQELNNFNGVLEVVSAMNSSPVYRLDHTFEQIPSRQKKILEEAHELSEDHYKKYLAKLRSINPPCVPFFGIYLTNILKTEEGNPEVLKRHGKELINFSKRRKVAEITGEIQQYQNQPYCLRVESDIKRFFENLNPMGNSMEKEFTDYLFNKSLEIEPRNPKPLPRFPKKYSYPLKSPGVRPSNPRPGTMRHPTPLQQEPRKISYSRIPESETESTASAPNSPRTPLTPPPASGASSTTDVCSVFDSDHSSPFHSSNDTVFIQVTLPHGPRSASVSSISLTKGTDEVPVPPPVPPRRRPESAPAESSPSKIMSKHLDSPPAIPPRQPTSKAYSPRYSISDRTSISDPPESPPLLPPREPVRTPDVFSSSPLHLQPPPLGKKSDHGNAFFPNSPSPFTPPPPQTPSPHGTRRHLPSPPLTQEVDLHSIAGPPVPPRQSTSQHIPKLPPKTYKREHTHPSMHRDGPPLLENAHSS
- assaySummary: Inhibition of human N-terminal GST-tagged K-RasG12C mutant/human N-terminal His-tagged SOS1 preincubated for 2 mis followed by SOS1 addition and measured after 10 mins in presence of EDA-GTP-Dy647P1 by HTRF assay
readout: IC50 (nM)

* Cc1nc(NC(C)c2ccc(-c3ccccc3CN(C)C)s2)c2cc(N3CCNC(=O)C3)ncc2n1 (stereo unspecified) | 54
